- tested.on: α-synuclein oligomers (Homo sapiens)
- assay.overview: Gaussia luciferase protein-fragment complementation cell assay of α-synuclein oligomers in H4 neuroglioma cells
- Assay type: cell-based
- Design: full-length human α-synuclein fused to the N-terminal fragment of Gaussia princeps luciferase (syn-luc1); full-length human α-synuclein fused to the C-terminal fragment of Gaussia princeps luciferase (syn-luc2); expressed in transfected cells; host or cells: H4 neuroglioma cells (ATCC, HTB-148), transient co-transfection
- condition.summary: 1 μM or 10 μM, 24 hours of treatment
measure.name: decrease in luciferase activity compared with vehicle alone (%)

1. CN1C(C(=O)Nc2ccccn2)=C(O)c2ccccc2S1(=O)=O ... 19
2. Sc1ncnc2nc[nH]c12 ... 17
3. Cn1c(=O)c2c(ncn2C)n(C)c1=O ... 16
4. COc1cc([C@@H]2c3cc4c(cc3[C@@H](O[C@@H]3O[C@@H]5CO[C@@H](C)O[C@H]5[C@H](O)[C@H]3O)[C@H]3COC(=O)[C@H]23)OCO4)cc(OC)c1O [Etoposide] ... 30
5. CC(=O)Nc1ccc(O)cc1 ... 14
6. CC[C@]1(O)C[C@H]2CN(CCc3c([nH]c4ccccc34)[C@@](C(=O)OC)(c3cc4c(cc3OC)N(C=O)[C@H]3[C@@](O)(C(=O)OC)[C@H](OC(C)=O)[C@]5(CC)C=CCN6CC[C@]43[C@@H]65)C2)C1 ... 33
7. Cn1c(=O)c2[nH]cnc2n(C)c1=O ... 8
8. CCCCc1nc(Cl)c(CO)n1Cc1ccc(-c2ccccc2-c2nnn[nH]2)cc1 ... 16
